Parameter IC50: see the listing below.
Molecular target: Human DPP IV (Homo sapiens)
Construct: Human serum containing DPP-IV enzyme was diluted finally 9- to 20-fold with assay buffer
Assay: In Vitro DPP-IV Inhibitory Effect Measurement Test
Details: human serum containing DPP-IV enzyme; substrate Glycyl-L-Proline 4-Methyl-Coumaryl-7-Amide 10 to 100 μM; room temperature; fluorescence 360/460 nm; read-out: Human DPP IV inhibiting activity IC50
Structures can show the parent of a compound that is named as a salt.

These solved cases illustrate the format of a correct answer.
* CN(C)C(=O)c1c(N2CCC[C@@H](N)C2)n(Cc2ccccc2Cl)c2c(=O)n(C)c(=O)n(C)c12 [Example 25] | 7.6 nM
* Cn1c(=O)c2c(cc(N3CCC[C@@H](N)C3)n2Cc2cc(F)ccc2Cl)n(C)c1=O [Example 6, hydrochloride] | 1.9 nM
* Cn1c(=O)n(Cc2cc3ccccc3cn2)c(=O)c2c1cc(N1CCC[C@@H](N)C1)n2Cc1cc(F)ccc1Cl [Example 18] | 12 nM
* Cn1c(O)nc2c(C#N)c(N3CCC[C@@H](N)C3)n(Cc3ccccc3Cl)c2c1=O [Example 3, hydrochloride] | 26 nM
* Cn1c(=O)c2c(c(C#N)c(N3CCC[C@H](N)C3)n2Cc2cc(F)ccc2Cl)n(C)c1=O [Example 70, hydrochloride] | 3800 nM

[ask] Look up IC50 for this molecule: Cn1c(=O)c2c(c(C(=O)N3CCC(O)CC3)c(N3CCC[C@@H](N)C3)n2Cc2ccccc2Cl)n(C)c1=O [Example 33]
[reply] 12 nM

[ask] Look up IC50 for this molecule: CCOC(=O)c1c(N2CCC[C@@H](N)C2)n(Cc2ccccc2Cl)c2c(=O)n(C)c(=O)n(C)c12 [Example 24]
[reply] 44 nM

[ask] Look up IC50 for this molecule: Cn1c(=O)c2c(c(C(=O)N3CCCC3)c(N3CCC[C@@H](N)C3)n2Cc2ccccc2Cl)n(C)c1=O [Example 27]
[reply] 9.8 nM

[ask] Look up IC50 for this molecule: Cn1c(Oc2ccccc2C(N)=O)nc2c(C#N)c(N3CCC[C@@H](N)C3)n(Cc3ccccc3Cl)c2c1=O [Example 7, hydrochloride]
[reply] 60 nM

* * *

Molecular target: Human DPP IV (Homo sapiens, UniProt P27487)
Construct: Human serum containing DPP-IV enzyme was diluted finally 9- to 20-fold with assay buffer
Sequence (P27487 39-766 limits assumed): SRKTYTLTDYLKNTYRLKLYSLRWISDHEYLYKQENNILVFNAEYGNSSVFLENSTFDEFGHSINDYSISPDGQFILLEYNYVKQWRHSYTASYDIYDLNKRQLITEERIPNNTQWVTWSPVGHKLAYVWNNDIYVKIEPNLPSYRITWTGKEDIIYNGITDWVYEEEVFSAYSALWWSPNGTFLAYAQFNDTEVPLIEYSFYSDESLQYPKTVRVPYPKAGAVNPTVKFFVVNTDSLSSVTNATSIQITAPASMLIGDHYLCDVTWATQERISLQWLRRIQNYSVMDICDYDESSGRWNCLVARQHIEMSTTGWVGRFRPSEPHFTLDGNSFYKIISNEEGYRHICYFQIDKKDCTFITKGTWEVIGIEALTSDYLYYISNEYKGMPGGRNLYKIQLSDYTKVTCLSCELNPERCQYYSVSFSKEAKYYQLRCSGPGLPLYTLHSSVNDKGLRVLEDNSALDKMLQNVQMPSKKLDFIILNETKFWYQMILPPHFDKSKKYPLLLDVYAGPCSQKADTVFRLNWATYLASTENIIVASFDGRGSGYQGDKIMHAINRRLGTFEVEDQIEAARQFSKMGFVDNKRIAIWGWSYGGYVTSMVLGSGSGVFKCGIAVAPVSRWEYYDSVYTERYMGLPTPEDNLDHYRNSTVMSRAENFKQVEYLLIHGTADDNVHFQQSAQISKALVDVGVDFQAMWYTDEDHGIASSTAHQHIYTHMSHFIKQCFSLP
Assay: In Vitro DPP-IV Inhibitory Effect Measurement Test
Conditions: human serum containing DPP-IV enzyme; substrate Glycyl-L-Proline 4-Methyl-Coumaryl-7-Amide 10 to 100 μM; room temperature; fluorescence 360/460 nm; read-out: Human DPP IV inhibiting activity IC50
measurement-kind: IC50 (nM)
Answer with a number only, understood to be in nM.

• Cn1c(=O)n(CC(=O)c2ccccc2)c(=O)c2c1cc(N1CCC[C@@H](N)C1)n2Cc1cc(F)ccc1Cl [Example 19] = 7.1
• Cn1c(=O)c2c(c(C(=O)N3CCOCC3)c(N3CCC[C@@H](N)C3)n2Cc2cc(F)ccc2Cl)n(C)c1=O [Example 44] = 9
• Cn1c(=O)[nH]c(=O)c2c1cc(N1CCC[C@@H](N)C1)n2Cc1cc(F)ccc1Cl [Example 20] = 4.3

Turning to the following compound.
[ask] Look up IC50 for this compound: CC#CCn1c(N2CCC[C@@H](N)C2)cc2c1c(=O)n(C)c(=O)n2C [Example 14]
[reply] 55
